The values you see were collected from patent US20250346571A1.

test_details: Pharmacokinetic test in mice
Format: in vivo, Balb/c mice
run_parameters: male, Balb/c, mouse, iv; mice, i.v. 2.5 mg/kg, plasma; read-out: Vdss
measured_quantity: Vd (L/kg)

A selection of reference data follows.
INSERT INTO results (structure_as_smiles, measured_quantity, assay_value) VALUES
  ('Cc1nc2ccc(CN3CCN(c4ccc(C(=O)Nc5cnn(C)c5)nc4F)CC3)c(F)c2[nH]c1=O', 'Vd', 2.09),
  ('O=C(NC1CC1)c1ccc(N2CCN(Cc3ccc4nc(C(F)F)c(=O)[nH]c4c3F)CC2)c(F)n1', 'Vd', 0.42),
  ('Cn1cc(NC(=O)c2ccc(N3CCN(Cc4ccc5nc(C(F)F)c(=O)[nH]c5c4F)CC3)c(F)n2)cn1', 'Vd', 0.342);

a. Cn1cc(C(=O)Nc2ccc(N3CCN(Cc4ccc5nc(C(F)F)c(=O)[nH]c5c4F)CC3)c(F)n2)c(F)n1
b. Cc1nc2ccc(CN3CCN(c4ccc(C(=O)N[C@H]5C[C@H]5F)nc4F)CC3)c(F)c2[nH]c1=O
Could you point out whether the larger Vd belongs to a or to b ? // respond with label for picked entry
b
(b: 2.85 L/kg, a: 0.582 L/kg)

---

test_details: Pharmacokinetic test in monkeys
Format: in vivo, cynomolgus monkeys
run_parameters: male, cynomolgus monkey, iv; monkeys, i.v. (0.5 mg/kg), plasma
measured_quantity: clearance (mL/min/kg)
Write down the numeric answer in mL/min/kg and omit the unit.

Data request, read-out clearance, for `O=C(NC1CC1)c1ccc(N2CCN(Cc3ccc4nc(C(F)F)c(=O)[nH]c4c3F)CC2)c(F)n1`
1.5

---

assayed_target: UniProt P09874
Sequence (P09874 whole entry): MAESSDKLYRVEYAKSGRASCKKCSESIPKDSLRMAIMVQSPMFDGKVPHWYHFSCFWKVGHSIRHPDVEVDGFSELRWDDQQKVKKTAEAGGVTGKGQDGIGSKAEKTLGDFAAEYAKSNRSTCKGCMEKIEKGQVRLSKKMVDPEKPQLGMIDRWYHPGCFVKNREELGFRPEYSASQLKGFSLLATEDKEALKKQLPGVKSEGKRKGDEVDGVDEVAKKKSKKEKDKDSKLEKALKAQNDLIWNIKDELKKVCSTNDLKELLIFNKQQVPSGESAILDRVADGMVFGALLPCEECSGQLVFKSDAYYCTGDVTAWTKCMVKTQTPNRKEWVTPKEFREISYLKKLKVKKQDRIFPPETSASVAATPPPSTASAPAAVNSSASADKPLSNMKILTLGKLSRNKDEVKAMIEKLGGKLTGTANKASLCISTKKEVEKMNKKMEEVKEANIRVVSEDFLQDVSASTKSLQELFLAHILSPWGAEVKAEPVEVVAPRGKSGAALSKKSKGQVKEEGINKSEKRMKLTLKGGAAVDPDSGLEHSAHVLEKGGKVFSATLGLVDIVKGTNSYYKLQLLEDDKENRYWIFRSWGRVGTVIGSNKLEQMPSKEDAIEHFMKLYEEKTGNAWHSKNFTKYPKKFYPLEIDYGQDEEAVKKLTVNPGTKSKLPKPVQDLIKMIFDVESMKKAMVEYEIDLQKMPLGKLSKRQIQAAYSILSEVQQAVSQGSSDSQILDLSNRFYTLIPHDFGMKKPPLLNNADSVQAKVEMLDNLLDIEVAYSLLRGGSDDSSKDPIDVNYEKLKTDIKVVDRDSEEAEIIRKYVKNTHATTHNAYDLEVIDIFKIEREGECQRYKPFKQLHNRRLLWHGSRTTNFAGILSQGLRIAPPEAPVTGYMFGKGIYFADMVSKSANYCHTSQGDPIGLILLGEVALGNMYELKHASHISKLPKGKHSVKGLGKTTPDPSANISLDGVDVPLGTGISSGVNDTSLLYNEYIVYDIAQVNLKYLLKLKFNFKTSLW
test_details: PARP-1 enzyme activity test (chemical fluorescence detection kit, BPS Bioscience)
Assay type: biochemical
run_parameters: read-out: IC50 value on PARP-1
measured_quantity: pIC50
The meaning of pIC50 here: minus log10 of the concentration in molar units.

Name the reported pIC50 value associated with the compound `Cc1nc2ccc(CN3CCN(c4ccc(C(=O)Nc5cnn(C)c5)nc4F)CC3)c(F)c2[nH]c1=O`
9.10

---

test_details: Pharmacokinetic test in beagle dogs
Type: in vivo
run_parameters: male, dog, po; beagle dogs, i.g. (3 mg/kg), plasma
measured_quantity: AUC(0-t) (ng·h/mL)
Provide only the numeric value, understood in ng·h/mL.

Request the reported AUC(0-t) associated with `O=C(NC1CC1)c1ccc(N2CCN(Cc3ccc4nc(C(F)F)c(=O)[nH]c4c3F)CC2)c(F)n1`
19000

---

Measured inhibition at 10 µM, listed per entry for reference.
Test system: MDA-MB-436 cells
test_details: MDA-MB-436 cell activity test (CellTiter-Glo, 7 days)
Format: cell-based
run_parameters: Homo sapiens; 10 μM, MDA-MB-436 cells; read-out: Max inh. % 10 μM
Method: Breast tumor cells MDA-MB-436 were purchased from ATCC, the culture medium was Leibovitz's L-15+10% FBS, and the cells were cultured in a CO2-free incubator at 37° C. […] The plate was placed at room temperature for 10 min, and then […] were measured using an Envision2104 plate reader (PerkinElmer). […] The IC50 value was calculated using GraphPad Prism software
The reply should contain only the number, in %.

INSERT INTO results (structure_as_smiles, assayed_target, assay_value) VALUES
  ('Cc1nc2ccc(CN3CCN(c4ccc(C(=O)Nc5cnn(C)c5)nc4F)CC3)c(F)c2[nH]c1=O', 'MDA-MB-436 cells', 86),
  ('Cn1cc(C(=O)Nc2ccc(N3CCN(Cc4ccc5nc(C(F)F)c(=O)[nH]c5c4F)CC3)c(F)n2)cn1', 'MDA-MB-436 cells', 73.2),
  ('Cc1nc2ccc(CN3CCN(c4ccc(C(=O)N[C@@H]5C[C@@H]5F)nc4F)CC3)c(F)c2[nH]c1=O', 'MDA-MB-436 cells', 80.1),
  ('Cc1nc2ccc(CN3CCN(c4ccc(C(=O)N[C@H]5C[C@H]5F)nc4F)CC3)c(F)c2[nH]c1=O', 'MDA-MB-436 cells', 79.8),
  ('Cn1cc(NC(=O)c2ccc(N3CCN(Cc4ccc5nc(C(F)F)c(=O)[nH]c5c4F)CC3)c(F)n2)cn1', 'MDA-MB-436 cells', 74.2),
  ('Cc1nc2ccc(CN3CC=C(c4ccc(C(=O)Nc5cnn(C)c5)nc4F)CC3)c(F)c2[nH]c1=O', 'MDA-MB-436 cells', 84.4);

Looking for the measured inhibition at 10 µM of `O=C(NC1CC1)c1ccc(N2CCN(Cc3ccc4nc(C(F)F)c(=O)[nH]c4c3F)CC2)c(F)n1` , can you help?
74.5

---

test_details: Pharmacokinetic test in beagle dogs
Assay type: in vivo
run_parameters: male, dog, iv; beagle dogs, i.v. (0.2 mg/kg), plasma; read-out: Vdss
measured_quantity: Vd (L/kg)
Response body: numeric value in L/kg, unit text excluded.

Give its Vd value. Item: O=C(NC1CC1)c1ccc(N2CCN(Cc3ccc4nc(C(F)F)c(=O)[nH]c4c3F)CC2)c(F)n1 [Compound 12]
1.52

---

test_details: Pharmacokinetic test in rats
Format: in vivo, SD rats
run_parameters: male, SD, rat, po; rats, i.g. 10 mg/kg, plasma
measured_quantity: AUC(0-t) (ng·h/mL)

INSERT INTO assay_data (molecule, measured_quantity, assay_value) VALUES
  ('Cc1nc2ccc(CN3CCN(c4ccc(C(=O)N[C@@H]5C[C@@H]5F)nc4F)CC3)c(F)c2[nH]c1=O [Compound 4]', 'AUC(0-t)', 33400),
  ('Cn1cc(NC(=O)c2ccc(N3CCN(Cc4ccc5nc(C(F)F)c(=O)[nH]c5c4F)CC3)c(F)n2)cn1 [Compound 15]', 'AUC(0-t)', 89800),
  ('O=C(NC1CC1)c1ccc(N2CCN(Cc3ccc4nc(C(F)F)c(=O)[nH]c4c3F)CC2)c(F)n1 [Compound 12]', 'AUC(0-t)', 63300);

I. Cn1cc(C(=O)Nc2ccc(N3CCN(Cc4ccc5nc(C(F)F)c(=O)[nH]c5c4F)CC3)c(F)n2)c(F)n1 [Compound 18]
II. Cn1cc(C(=O)Nc2ccc(N3CCN(Cc4ccc5nc(C(F)F)c(=O)[nH]c5c4F)CC3)c(F)n2)cn1 [Compound 14]
Lab log: flag the item ( I or II ) with the smaller AUC(0-t) figure. Returns: label corresponding to the selected item.
I
(I: 87600 ng·h/mL, II: 138000 ng·h/mL)

---

test_details: Pharmacokinetic test in beagle dogs
Format: in vivo
run_parameters: male, dog, iv; beagle dogs, i.v. (0.2 mg/kg), plasma
measured_quantity: clearance (mL/min/kg)
Field: numeric (mL/min/kg). Do not append units.

Which value of clearance has been reported for `O=C(NC1CC1)c1ccc(N2CCN(Cc3ccc4nc(C(F)F)c(=O)[nH]c4c3F)CC2)c(F)n1` in the records?
3.47

---

test_details: Pharmacokinetic test in beagle dogs
Assay type: in vivo
run_parameters: male, dog, plasma, po; beagle dogs, i.g. (3 mg/kg)
measured_quantity: bioavailability

Entry under review: O=C(NC1CC1)c1ccc(N2CCN(Cc3ccc4nc(C(F)F)c(=O)[nH]c4c3F)CC2)c(F)n1 [Compound 12] . Reported bioavailability?
≥ 98%

---

test_details: Pharmacokinetic test in mice
Assay type: in vivo, Balb/c mice
run_parameters: male, Balb/c, mouse, plasma, po; mice, i.g. 10 mg/kg
Procedure: 4.1 Experimental animal: male Balb/c mice, 20-25 g, 12 mice/compound, purchased from Chengdu Ddossy Experimental Animals Co., Ltd. 4.2 Experimental design: on the day of the test, 60 Balb/c mice were randomly grouped according to their body weights. […] Before and after the administration, 0.06 mL ofblood was taken from the orbit of the animals under isoflurane anesthesia and placed in an EDTAK2 centrifuge tube. […] The samples were analyzed quantitatively by LC-MS/MS.
measured_quantity: bioavailability

Below, each entry is followed by its recorded bioavailability result.
INSERT INTO measurements (structure_as_smiles, assay_value) VALUES
  ('Cc1nc2ccc(CN3CCN(c4ccc(C(=O)N[C@H]5C[C@H]5F)nc4F)CC3)c(F)c2[nH]c1=O', '≥ 98%'),
  ('Cn1cc(C(=O)Nc2ccc(N3CCN(Cc4ccc5nc(C(F)F)c(=O)[nH]c5c4F)CC3)c(F)n2)c(F)n1', '≥ 98%');

// bioavailability lookup, key: `Cc1nc2ccc(CN3CCN(c4ccc(C(=O)Nc5cnn(C)c5)nc4F)CC3)c(F)c2[nH]c1=O`
97.4%

Next: `Cn1cc(NC(=O)c2ccc(N3CCN(Cc4ccc5nc(C(F)F)c(=O)[nH]c5c4F)CC3)c(F)n2)cn1`
≥ 98%

Proceed to `O=C(NC1CC1)c1ccc(N2CCN(Cc3ccc4nc(C(F)F)c(=O)[nH]c4c3F)CC2)c(F)n1`
≥ 98%

---

test_details: Pharmacokinetic test in beagle dogs
Assay type: in vivo
run_parameters: male, dog, iv; beagle dogs, i.v. (0.2 mg/kg), plasma
measured_quantity: AUC(0-t) (ng·h/mL)
Supply the numeric figure in ng·h/mL, leaving out any unit text.

// returns reported AUC(0-t) for input `O=C(NC1CC1)c1ccc(N2CCN(Cc3ccc4nc(C(F)F)c(=O)[nH]c4c3F)CC2)c(F)n1`
1950
